target: T1, hPRLR.mmh (soluble monomeric human PRLR) (human)
T1 construct: called soluble monomeric PRLR protein
T1 chain: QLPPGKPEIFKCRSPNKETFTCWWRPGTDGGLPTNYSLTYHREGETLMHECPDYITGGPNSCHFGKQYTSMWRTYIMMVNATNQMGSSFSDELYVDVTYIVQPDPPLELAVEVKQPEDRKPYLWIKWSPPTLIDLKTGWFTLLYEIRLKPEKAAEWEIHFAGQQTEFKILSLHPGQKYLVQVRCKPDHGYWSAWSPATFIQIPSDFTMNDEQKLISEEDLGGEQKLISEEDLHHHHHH
experiment summary: SPR Biacore, 25 C, mAb capture
assay readout: koff (s⁻¹)
One number for each entry, in s⁻¹.

binder	assay readout	assay result
H1H6804P (antibody, human IgG1, V domains shown, Human IgG1 Fc (H1H)) VH: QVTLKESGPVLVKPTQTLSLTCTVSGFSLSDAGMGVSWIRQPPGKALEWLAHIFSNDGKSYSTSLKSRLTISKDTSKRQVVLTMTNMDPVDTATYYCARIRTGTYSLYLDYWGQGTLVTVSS VL: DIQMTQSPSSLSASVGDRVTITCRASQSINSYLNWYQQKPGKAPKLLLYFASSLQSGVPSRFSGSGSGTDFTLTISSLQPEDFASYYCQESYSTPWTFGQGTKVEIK	koff	0.000634
H1H6797P (antibody, human IgG1, V domains shown, Human IgG1 Fc (H1H)) VH: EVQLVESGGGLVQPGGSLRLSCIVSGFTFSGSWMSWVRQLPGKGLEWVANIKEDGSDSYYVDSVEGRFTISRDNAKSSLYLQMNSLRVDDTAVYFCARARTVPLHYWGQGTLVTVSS VL: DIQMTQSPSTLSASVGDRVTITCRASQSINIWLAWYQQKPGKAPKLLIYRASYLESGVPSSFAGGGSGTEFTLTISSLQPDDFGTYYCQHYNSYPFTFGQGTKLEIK	koff	0.00196

Could you now consider this next binder?
Report koff, nothing else, for this binder: H1H6774P (antibody, human IgG1, V domains shown, Human IgG1 Fc (H1H)) VH: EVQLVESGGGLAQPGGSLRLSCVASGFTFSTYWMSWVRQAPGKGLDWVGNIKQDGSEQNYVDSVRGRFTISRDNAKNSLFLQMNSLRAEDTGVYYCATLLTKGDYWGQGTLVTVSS VL: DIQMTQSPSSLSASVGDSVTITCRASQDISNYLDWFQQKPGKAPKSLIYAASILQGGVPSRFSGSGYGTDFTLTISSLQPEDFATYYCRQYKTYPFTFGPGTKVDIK 0.000818
